Consider the following molecules and their measured Kd readings.
Target: mouse FAP (Mus musculus, UniProt P97321)
Construct: biotinylated His, Avi tag, mouse FAP (26-761, FAP-M82Q5); His; Avi tag (biotinylated); purchased AcroBiosystems FAP-M82Q5
Sequence (P97321 26-761): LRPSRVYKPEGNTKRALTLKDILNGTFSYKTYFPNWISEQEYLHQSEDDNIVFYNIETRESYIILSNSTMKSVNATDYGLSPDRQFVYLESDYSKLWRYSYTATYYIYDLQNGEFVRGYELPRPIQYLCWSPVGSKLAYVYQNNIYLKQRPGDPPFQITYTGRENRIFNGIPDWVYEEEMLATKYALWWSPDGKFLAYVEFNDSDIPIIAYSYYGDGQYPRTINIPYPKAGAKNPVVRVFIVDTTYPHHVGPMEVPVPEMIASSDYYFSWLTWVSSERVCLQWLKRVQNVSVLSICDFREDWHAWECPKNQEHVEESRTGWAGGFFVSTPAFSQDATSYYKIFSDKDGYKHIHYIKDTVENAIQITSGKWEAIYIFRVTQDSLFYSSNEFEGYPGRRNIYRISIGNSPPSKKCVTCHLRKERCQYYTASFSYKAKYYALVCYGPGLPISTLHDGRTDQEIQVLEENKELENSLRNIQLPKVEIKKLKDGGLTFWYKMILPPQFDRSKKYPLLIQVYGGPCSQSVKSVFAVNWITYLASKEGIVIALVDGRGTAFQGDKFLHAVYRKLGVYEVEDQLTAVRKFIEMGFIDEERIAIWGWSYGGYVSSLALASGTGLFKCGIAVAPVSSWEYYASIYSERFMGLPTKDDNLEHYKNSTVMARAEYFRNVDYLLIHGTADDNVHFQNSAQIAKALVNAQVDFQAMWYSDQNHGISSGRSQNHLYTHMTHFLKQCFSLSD
Assay: Surface plasmon resonance (SPR) for peptide affinity, mouse FAP
Format: binding
Where a name gives a salt, the structure may show the parent alone. Starred links: 1 amine or outer side, 2 acyl side, 3 side chain; linkers in the order of their positions; H or OH if unused. Non-standard residues stand in square brackets, D forms with d. Residues, ends and D or L forms follow the SMILES beside them. Groups on a side chain read outwards from the residue. *: point of attachment. DOTA = O=C(O)CN1CCN(CC(=O)O)CCN(CC(=O)*)CCN(CC(=O)O)CC1; Trp(7-Cl) = N[C@@H](Cc1c[nH]c2c(Cl)cccc12)C(=O)O; Trp(7-OMe) = COc1cccc2c(C[C@H](N)C(=O)O)c[nH]c12; Piperazinyl(4-CH2COOH) = O=C(O)CN1CCN(*)CC1; X7 = CCCCC[C@@H](O)[C@H](N[*:1])C(=O)[*:2]; 3Pal(6-NH2) = Nc1ccc(C[C@H](N)C(=O)O)cn1; AEF = NCCOc1ccc(C[C@H](N)C(=O)O)cc1; Hyp = O=C(O)[C@@H]1C[C@@H](O)CN1; NMeF = CN[C@@H](Cc1ccccc1)C(=O)O; Ahp(2) = CCCCC[C@H](N)C(=O)O; Orn = NCCC[C@H](N)C(=O)O; CO = O=C([*:1])[*:2]
API: value field is a number in nM; no unit string.

molecule	Kd (nM)
CCCCC[C@@H]1NC(=O)[C@H](Cc2ccc(OCCN)cc2)NC(=O)[C@H](Cc2ccccc2)N(C)C(=O)CNC(=O)[C@@H]2CCCN2C(=O)[C@H]2CCCN2C(=O)[C@H](CC(=O)O)NC(=O)[C@H](Cc2ccc(O)cc2)NC(=O)CNC(=O)[C@H](Cc2c[nH]c3ccccc23)NC1=O [Example A32] (cyclo(G[NMeF][AEF][Ahp(2)]WGYD[dP]P))	0.55
CCCCC[C@@H]1NC(=O)[C@H](Cc2ccc(OCCNC(=O)CN3CCN(CC(=O)O)CCN(CC(=O)O)CCN(CC(=O)O)CC3)cc2)NC(=O)[C@H](Cc2ccccc2)N(C)C(=O)CNC(=O)CNC(=O)[C@H]2CCCN2C(=O)[C@H](CC(=O)O)NC(=O)[C@H](Cc2ccc(N)nc2)NC(=O)CNC(=O)[C@H](Cc2c[nH]c3ccccc23)NC1=O [Example B24, TFA salt] (cyclo([AEF](DOTA)[Ahp(2)]WG[3Pal(6-NH2)]D[dP]GG[NMeF]))	0.066
CCCCC[C@@H]1NC(=O)[C@H](Cc2ccc(OCCN)cc2)NC(=O)[C@H](Cc2ccccc2)N(C)C(=O)CNC(=O)[C@@H]2C[C@@H](O)CN2C(=O)[C@H]2CCCN2C(=O)[C@H](CC(=O)O)NC(=O)[C@H](Cc2ccc(O)cc2)NC(=O)CNC(=O)[C@H](Cc2c[nH]c3ccccc23)NC1=O [Example A33] (cyclo([AEF][Ahp(2)]WGYD[dP][Hyp]G[NMeF]))	1.1
CCCCC[C@@H]1NC(=O)[C@H](Cc2ccc(O)cc2)NC(=O)[C@H](Cc2ccccc2)N(C)C(=O)CNC(=O)[C@H](CCCCN)NC(=O)[C@H]2CCCN2C(=O)[C@H](CC(=O)O)NC(=O)[C@H](Cc2ccc(O)cc2)NC(=O)CNC(=O)[C@H](Cc2c[nH]c3c(Cl)cccc23)NC1=O [Example A25, TFA salt] (cyclo([Ahp(2)][Trp(7-Cl)]GYD[dP]KG[NMeF]Y))	0.47
CCCCC[C@@H]1NC(=O)[C@H](Cc2ccc(O)cc2)NC(=O)[C@H](Cc2ccccc2)N(C)C(=O)CNC(=O)CNC(=O)[C@H]2CCCN2C(=O)[C@H](CC(=O)O)NC(=O)[C@H](Cc2ccc(O)cc2)NC(=O)CNC(=O)[C@H](Cc2c[nH]c3c(OC)cccc23)NC1=O [Example A61] (cyclo([Ahp(2)][Trp(7-OMe)]GYD[dP]GG[NMeF]Y))	0.162

Record for CCCCC[C@@H]1NC(=O)[C@H](Cc2ccc(O)cc2)NC(=O)[C@H](Cc2ccccc2)N(C)C(=O)CNC(=O)CNC(=O)[C@H]2CCCN2C(=O)[C@H](CCC(=O)O)NC(=O)[C@H](Cc2ccc(O)cc2)NC(=O)CNC(=O)[C@H](Cc2c[nH]c3ccccc23)NC1=O [Example A71] (cyclo([Ahp(2)]WGYE[dP]GG[NMeF]Y)) under target or system mouse FAP (Mus musculus, UniProt P97321): Kd reported as 0.242

Record for CCCCC[C@@H]1NC(=O)[C@H](Cc2ccc(O)cc2)NC(=O)[C@H](Cc2ccccc2)N(C)C(=O)CNC(=O)CNC(=O)[C@H]2CCCN2C(=O)[C@H](CC(=O)O)NC(=O)[C@H](CCCNC(=O)N2CCN(CC(=O)O)CC2)NC(=O)CNC(=O)[C@H](Cc2c[nH]c3ccccc23)NC1=O [Example A4, TFA salt] (cyclo([Ahp(2)]WG[Orn]([CO-Piperazinyl(4-CH2COOH)])D[dP]GG[NMeF]Y)) under target or system mouse FAP (Mus musculus, UniProt P97321): Kd reported as 0.47

Record for CCCCC[C@@H](O)[C@@H]1NC(=O)[C@H](Cc2ccc(O)cc2)NC(=O)[C@H](Cc2ccccc2)N(C)C(=O)CNC(=O)CNC(=O)[C@H]2CCCN2C(=O)[C@H](CC(=O)O)NC(=O)[C@H](Cc2ccc(O)cc2)NC(=O)CNC(=O)[C@H](Cc2c[nH]c3ccccc23)NC1=O [Example A34] (cyclo(D[dP]GG[NMeF]Y[X7]WGY)) under target or system mouse FAP (Mus musculus, UniProt P97321): Kd reported as 0.25
